Biological target: Protein translocase subunit SecA (Escherichia coli (strain K12)) (UniProt P10408)
Sequence (P10408 whole entry): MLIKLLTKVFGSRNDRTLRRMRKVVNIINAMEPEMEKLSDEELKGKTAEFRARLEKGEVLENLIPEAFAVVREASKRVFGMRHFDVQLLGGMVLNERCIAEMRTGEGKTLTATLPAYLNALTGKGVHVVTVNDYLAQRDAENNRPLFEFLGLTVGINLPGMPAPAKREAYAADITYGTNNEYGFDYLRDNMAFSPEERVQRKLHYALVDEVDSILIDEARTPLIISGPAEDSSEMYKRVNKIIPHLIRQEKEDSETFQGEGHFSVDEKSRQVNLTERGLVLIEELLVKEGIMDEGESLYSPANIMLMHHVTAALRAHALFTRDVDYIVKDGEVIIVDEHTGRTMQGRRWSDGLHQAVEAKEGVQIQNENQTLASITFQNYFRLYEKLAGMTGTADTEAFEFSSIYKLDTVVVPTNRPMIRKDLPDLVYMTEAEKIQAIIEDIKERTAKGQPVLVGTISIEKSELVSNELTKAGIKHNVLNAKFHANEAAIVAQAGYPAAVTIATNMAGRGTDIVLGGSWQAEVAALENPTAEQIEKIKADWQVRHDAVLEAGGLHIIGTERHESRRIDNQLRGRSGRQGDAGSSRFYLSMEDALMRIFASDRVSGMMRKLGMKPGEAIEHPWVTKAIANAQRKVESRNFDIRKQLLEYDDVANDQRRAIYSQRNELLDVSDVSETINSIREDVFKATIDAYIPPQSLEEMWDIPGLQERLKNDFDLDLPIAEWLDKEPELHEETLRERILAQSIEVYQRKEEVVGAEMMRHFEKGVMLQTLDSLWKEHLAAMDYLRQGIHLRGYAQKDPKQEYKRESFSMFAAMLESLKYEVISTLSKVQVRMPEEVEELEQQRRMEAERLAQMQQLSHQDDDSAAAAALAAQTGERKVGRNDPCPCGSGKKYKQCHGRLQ
Assay: Assay to Identify E. coli SecA ATPase Inhibitors
Type: functional
Set-up: scale not given: direction of the effect not stated beside the values
Conditions: 30 µM
Measured potencies and affinities stand elsewhere.
What Percent Effect was measured for each of the following?
Record the value in %, omitting the unit from your answer.

Notebook: pull reported Percent Effect for Protein translocase subunit SecA (Escherichia coli (strain K12)) (UniProt P10408), entry `CCS(=O)(=O)Nc1ccn(Cc2cccc(Cl)c2)n1`
-6.93

// map CN(C)CC1(O)CCN(S(=O)(=O)c2ccc(F)cc2)C1 (centres undefined) to recorded Percent Effect (system: Protein translocase subunit SecA (Escherichia coli (strain K12)) (UniProt P10408))
-4.76

What value of Percent Effect on Protein translocase subunit SecA (Escherichia coli (strain K12)) (UniProt P10408) does `CC(=O)N1CC[C@H]2OCC[C@@]2(C(=O)NCc2ccco2)C1` have?
-5.68

Test system Protein translocase subunit SecA (Escherichia coli (strain K12)) (UniProt P10408); read-out Percent Effect; what value for `COC[C@@]12CCO[C@@H]1CCN(Cc1ccccc1F)C2` ?
-2.12

---

Tested on: Trypanosoma cruzi
Test: Trypanosoma cruzi phosphomannomutase and mannose-1-phosphate guanylyltransferase assay
Assay type: functional
Parameters: scale not given: direction of the effect not stated beside the values
Conditions: 10 µM
So I've got a bunch of compounds here, and I need their Percent Effect values.
Write it as a number; the unit % goes unstated.

So what does the record say about Percent Effect for `Cc1cccc(C(=O)NCCCN2CCN(c3ccccc3)CC2)c1` ?
-7

// lookup Percent Effect for `O=c1nc(CNc2ccccc2)[nH]n1Cc1ccccc1`
-4.58

So what's the measured Percent Effect for this one? `COc1cccc(CC(=O)N2CCc3ncnc(NC(C)C)c3CC2)c1`
-3.42

So what does the record say about Percent Effect for CC(C)(C)c1nnc(CN2CCN(CC(O)c3ccccc3)CC2)o1 (centres undefined) ?
2.55

Which value of Percent Effect has been reported for `Cc1cccc(N2CCC(NC(=O)CCCc3cccs3)CC2)n1` in the records?
5.49

Bench note: what Percent Effect did Cc1ccccc1Cc1cnc(NC(=O)C2CNC(=O)N2)s1 (centres undefined) show?
2.36

For `COCCN(Cc1ccoc1)C(=O)c1ccccc1Cl` , what is its reported Percent Effect?
-4.24

Given the entry Cn1cc(C2CC(=O)NC23CCN(c2ncc(F)cn2)CC3)cn1 (centres undefined) , report its measured Percent Effect.
-4.25

What value of measured Percent Effect is listed for Cc1nccn1CCC1CCCCN1C(=O)c1ccc2[nH]nnc2c1 (centres undefined) ?
2.63

---

Biological target: Tyrosyl-tRNA synthetase, putative (Trypanosoma cruzi (strain CL Brener))
Experiment: Trypanosoma cruzi tyrosyl tRNA synthetase (TcYRS) _High Tyrosine SOP; further: in the data most compounds retested in dose-response had high values
Format: functional
Parameters: scale not given: direction of the effect not stated beside the values
Conditions: 30 µM
PROPERTY MEASURED: Percent Effect
Reply with the number and its unit after it.

What does the data say about its Percent Effect? Entry: `O=C(NCC1CC1)[C@H]1CC[C@@H]2[C@@H](CCN2Cc2ccoc2)O1`
4.3%

Which Percent Effect value is on record for CC(Cn1cccn1)NC(=O)Nc1ccc(N(C)C)nc1 (configuration not stated) ?
1.05%

Reported Percent Effect for CCn1c(C)cc(C(=O)N2CCCC(c3nc(C)no3)C2)c1C (configuration not stated) : what is it?
8.57%

// query Percent Effect value for entry `Cc1ccc(N2CC[C@H](OCC3CC3)[C@@H]2Cc2cnn(C)c2)nn1`
7.92%

Query (compound): O=C(CC1CCCC1)N1CCCC(c2n[nH]c3nccnc23)C1 (configuration not stated) ; field requested: Percent Effect
3.23%

# get_value(readout='Percent Effect', item= O=S1(=O)c2ccccc2C2(CCN(Cc3ccccc3)C2)N1CC1CC1 (configuration not stated) )
3.19%

# Percent Effect lookup, item CC1CCc2nc(O)c(C(=O)NCc3cccc(F)c3)cc2C1 (configuration not stated)
-1.06%

Requested read-out: Percent Effect. Entry: `Cc1ccc(NCc2cncc3c2CCN(C(=O)C2CC=CC2)C3)nn1`
13.5%

Form field: reported Percent Effect of `O=C(NC1CC1)[C@@H]1CCO[C@@H]2CCN(C3CCOCC3)C[C@@H]21`
1.07%

So what's the measured Percent Effect for this one? `O=C(Cc1ccc2c(c1)OCCO2)NC1CCCC1`
1.94%

I would be grateful if you could share the reported Percent Effect for `CSC(C)(C)CNC(=O)NC1CCN(C)CC1` .
4.92%

Tell me the measured Percent Effect of `c1cnn(C2CN(Cc3nc(-c4ccsc4)no3)C2)c1` , please.
4.41%

---

Biological target: Tyrosyl-tRNA synthetase, putative (Trypanosoma cruzi (strain CL Brener)) (UniProt Q4DSP6)
Sequence (whole entry): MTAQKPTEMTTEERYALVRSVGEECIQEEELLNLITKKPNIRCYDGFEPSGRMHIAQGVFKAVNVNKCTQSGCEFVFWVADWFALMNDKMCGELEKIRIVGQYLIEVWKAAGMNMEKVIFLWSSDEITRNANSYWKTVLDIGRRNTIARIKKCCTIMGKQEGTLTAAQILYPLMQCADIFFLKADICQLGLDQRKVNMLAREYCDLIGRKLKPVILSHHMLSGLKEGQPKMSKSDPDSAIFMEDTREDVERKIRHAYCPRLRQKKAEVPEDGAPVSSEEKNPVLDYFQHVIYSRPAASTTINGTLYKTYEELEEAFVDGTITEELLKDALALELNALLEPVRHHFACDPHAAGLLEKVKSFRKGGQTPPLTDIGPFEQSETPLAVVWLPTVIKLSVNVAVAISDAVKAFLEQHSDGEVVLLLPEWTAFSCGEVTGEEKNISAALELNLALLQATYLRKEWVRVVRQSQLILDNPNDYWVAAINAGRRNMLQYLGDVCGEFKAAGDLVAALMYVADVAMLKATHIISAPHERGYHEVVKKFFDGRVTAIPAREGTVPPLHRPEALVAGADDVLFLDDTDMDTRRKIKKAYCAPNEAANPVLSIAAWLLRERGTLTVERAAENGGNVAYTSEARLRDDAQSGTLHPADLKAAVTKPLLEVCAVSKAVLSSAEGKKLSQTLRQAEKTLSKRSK
Assay: Trypanosoma cruzi tyrosyl tRNA synthetase (TcYRS) SOP
Assay type: functional
Parameters: scale not given: direction of the effect not stated beside the values
Details: 30 µM
Hi there, I'd appreciate the recorded Percent Effect for every entry that follows.
Dear colleague, please return just the value in %, with no unit written.

Please give the measured Percent Effect for this compound: Cc1ccc(-c2nc(CNC3CCc4ncnn4C3)co2)c(C)c1 (stereo not drawn)
19.5

Quick one: Percent Effect of CCn1cnnc1CNC(=O)NCC(c1cccs1)N1CCCC1 (stereo not drawn) ?
19.5

Can you share its Percent Effect? I mean this compound: `CC(C)Oc1ncnc2c1CCN(Cc1cccs1)CC2`
10

---

Field: Percent Effect. Provide a value for each of the compounds that follow.
Target: Protein translocase subunit SecA (Escherichia coli (strain K12)) (UniProt P10408)
Test: Assay to Identify E. coli SecA ATPase Inhibitors
Format: functional
Design: scale not given: direction of the effect not stated beside the values
Details: 30 µM
Measured potencies and affinities stand elsewhere.
Give your result in % as a bare value.

Look up Percent Effect for this compound: `Cc1cnn(CCNCc2nc(COc3ccc(F)cc3)no2)c1`
-2.17

Suppose we examine the compound O=C(Nc1cccc(OCc2ccc(F)cc2)c1)C1COCCO1 (stereo not drawn) ; what Percent Effect value has been reported?
-4.66

Could you tell me which Percent Effect is on file for `CC(C)N(C)Cc1nnc2n1CCCN(C(=O)c1ccco1)C2` ?
-1.99

---

Kindly supply the reported Percent Effect values for the records listed here.
Organism: Homo sapiens
Assay: To identify inhibition of the IFN signalling (Jak-Stat) pathway via expression of an eGFP reporter gene under the control of an IFN-stimulated response element (ISRE) containing MxA promoter.
Assay type: functional
Set-up: scale not given: direction of the effect not stated beside the values
Conditions: 30 µM
I only need the number, in %, no unit after it.

May I ask what Percent Effect has been recorded for CCOCC1CN(S(C)(=O)=O)Cc2cnn(C)c21 (configuration not stated) ?
-2.61

Bench note: what Percent Effect did `COc1cccc(CNCc2c(C(C)C)nn(C)c2N(C)C)c1OC` show?
8.82

Please look up its Percent Effect: `CC(C)C(=O)NC1CCN(Cc2cccc3c2OCCO3)CC1`
17.1

Quick one: Percent Effect for `CSCC[C@H](N)C(=O)NCc1cc2n(n1)CCCN(C(=O)C1CCC1)C2` ?
-24.3

Look up Percent Effect for this compound: `c1cnn(C2CN(Cc3nc(-c4ccsc4)no3)C2)c1`
-0.515

May I ask what Percent Effect has been recorded for Cc1nc(C2CCCN(C(=O)c3scnc3C)C2)no1 (configuration not stated) ?
-0.897

Requested field: Percent Effect. Item: `CC(C)OCCCNC(=O)CN1CCC(N2CCN(C)C2=O)CC1`
-2.11

Tell me the measured Percent Effect of `CCCc1nc(C)cc(N2CCC3(CCC(=O)N(CCOC)C3)CC2)n1` , please.
-7.21

Given `CNC(=O)[C@@]12CCO[C@@H]1CCN(S(=O)(=O)c1cccc(C)c1)C2` , state its recorded Percent Effect.
11.1

Entry CCCc1nc(CN2CCOC(CNc3cccnn3)C2)cs1 (configuration not stated) : reported Percent Effect = ?
7.16

Using the record for `Cc1cc(CN2CCOCS2(=O)=O)ccc1F` , report its Percent Effect.
9.21

Fill in the blank: the reported Percent Effect of `Cc1ccc(S(=O)(=O)Nc2ccc(-n3cccc3C(=O)O)c(C)c2)s1` is ____.
-7.51

So what does the record say about Percent Effect for `Cn1cccc1C(=O)N1CCC2(CC1)CN(c1ccccn1)CCO2` ?
6.16

Bench note: what Percent Effect did Cc1ccc(C(O)CNC(=O)NCc2nc(C)cs2)cc1 (configuration not stated) show?
5.94

Percent Effect lookup needed for O=C(CCC1CCCC1)NCCn1nc(C2CCNC2)c2nccnc21 (configuration not stated) , thanks.
23.6

# query: Percent Effect of entry `Cc1ccc(C(=O)NCCCNS(C)(=O)=O)cc1-n1cccc1`
9.99

Could you tell me which Percent Effect is on file for `O=C(NC1CCC1)[C@@H]1C[C@@H]2CCN(Cc3cccs3)C[C@@H]2O1` ?
28.3
